Measured remaining at 2 h by item
MEASUREMENT_DESCRIPTION: Stability in human plasma assessed as compound remaining after 2 hrs by HPLC analysis
Type: ADME, cell-free
STATED_CONDITIONS: read-out: Stability
All answers are understood in %, so give the number only.

| COMPOUND | remaining at 2 h [%] |
| --- | --- |
| CC1=C(C)C(=O)C(CONC(=O)CCCCCCC(=O)Nc2ccccc2)=C(C)C1=O | 52 |

Then there is this compound:
Look up remaining at 2 h of O=C(CCCCCCC(=O)Nc1ccccc1)NO [VORINOSTAT] and report it.
55

----------
TEST_TARGET: Histone deacetylase 2 (Homo sapiens)
Sequence (Q92769 whole entry): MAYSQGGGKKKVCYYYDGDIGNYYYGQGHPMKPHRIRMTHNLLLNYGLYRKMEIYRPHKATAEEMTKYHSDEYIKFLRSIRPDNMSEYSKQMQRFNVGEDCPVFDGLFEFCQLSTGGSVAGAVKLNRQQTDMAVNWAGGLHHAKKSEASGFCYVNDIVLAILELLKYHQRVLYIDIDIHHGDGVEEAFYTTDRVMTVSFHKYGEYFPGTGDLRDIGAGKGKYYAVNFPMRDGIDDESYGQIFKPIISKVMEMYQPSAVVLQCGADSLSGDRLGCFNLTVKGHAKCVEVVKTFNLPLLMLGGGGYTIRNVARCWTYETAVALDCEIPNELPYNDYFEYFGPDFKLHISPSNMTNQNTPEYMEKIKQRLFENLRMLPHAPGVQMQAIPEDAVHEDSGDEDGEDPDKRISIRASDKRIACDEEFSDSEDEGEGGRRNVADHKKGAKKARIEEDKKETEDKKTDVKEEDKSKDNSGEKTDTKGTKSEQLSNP
MEASUREMENT_DESCRIPTION: Inhibition of human recombinant HDAC2 using MAZ1600 as fluorogenic substrate measured every 5 mins by optimized homogenous fluorescence based assay
RESULT_TYPE: IC50

| CPD_SMILES | RESULT |
| --- | --- |
| CC1=C(C)C(=O)C(CONC(=O)CCCCCCC(=O)Nc2ccccc2)=C(C)C1=O | 255 nM |

Then there is this molecule:
Give Histone deacetylase 2 (Homo sapiens) IC50 for the following molecule: O=C(CCCCCCC(=O)Nc1ccccc1)NOCc1ccccc1
> 10000 nM
